# experimental.system: Acetyl-CoA carboxylase 1 (Homo sapiens, UniProt Q13085)
# assay.remarks: In vitro inhibition of human recombinant His-tagged ACC1 assessed as malonyl-CoA level
Answer each item with its documented pIC50.
Give bare numbers, as −log10 of the molar value.

1. CCOC(=O)N1CCN(c2nc(C)nc3sc4c(c23)CCCC4)CC1 : 4.64

Switching to the query record.
The observed pIC50 for COc1ccccc1[C@H](Cn1c(=O)n(C(C)(C)C(=O)O)c(=O)c2c(C)c(-c3ncco3)sc21)OC1CCOCC1 when tested with Acetyl-CoA carboxylase 1 (Homo sapiens, UniProt Q13085) stands at 8.59

---

# experimental.system: UniProt:P11497
# assay.remarks: Inhibition of rat recombinant ACC1
result.type: IC50 (nM)
Give bare numbers, in nM.

# molecule Cc1cc2c(cc1C)C(=O)CC1(CCN(C(=O)c3cc(C)c4[nH]ncc4c3)CC1)O2 ; its IC50 = 25

---

# experimental.system: Acetyl-CoA carboxylase 2 (Homo sapiens, UniProt O00763)
# Sequence (O00763 whole entry): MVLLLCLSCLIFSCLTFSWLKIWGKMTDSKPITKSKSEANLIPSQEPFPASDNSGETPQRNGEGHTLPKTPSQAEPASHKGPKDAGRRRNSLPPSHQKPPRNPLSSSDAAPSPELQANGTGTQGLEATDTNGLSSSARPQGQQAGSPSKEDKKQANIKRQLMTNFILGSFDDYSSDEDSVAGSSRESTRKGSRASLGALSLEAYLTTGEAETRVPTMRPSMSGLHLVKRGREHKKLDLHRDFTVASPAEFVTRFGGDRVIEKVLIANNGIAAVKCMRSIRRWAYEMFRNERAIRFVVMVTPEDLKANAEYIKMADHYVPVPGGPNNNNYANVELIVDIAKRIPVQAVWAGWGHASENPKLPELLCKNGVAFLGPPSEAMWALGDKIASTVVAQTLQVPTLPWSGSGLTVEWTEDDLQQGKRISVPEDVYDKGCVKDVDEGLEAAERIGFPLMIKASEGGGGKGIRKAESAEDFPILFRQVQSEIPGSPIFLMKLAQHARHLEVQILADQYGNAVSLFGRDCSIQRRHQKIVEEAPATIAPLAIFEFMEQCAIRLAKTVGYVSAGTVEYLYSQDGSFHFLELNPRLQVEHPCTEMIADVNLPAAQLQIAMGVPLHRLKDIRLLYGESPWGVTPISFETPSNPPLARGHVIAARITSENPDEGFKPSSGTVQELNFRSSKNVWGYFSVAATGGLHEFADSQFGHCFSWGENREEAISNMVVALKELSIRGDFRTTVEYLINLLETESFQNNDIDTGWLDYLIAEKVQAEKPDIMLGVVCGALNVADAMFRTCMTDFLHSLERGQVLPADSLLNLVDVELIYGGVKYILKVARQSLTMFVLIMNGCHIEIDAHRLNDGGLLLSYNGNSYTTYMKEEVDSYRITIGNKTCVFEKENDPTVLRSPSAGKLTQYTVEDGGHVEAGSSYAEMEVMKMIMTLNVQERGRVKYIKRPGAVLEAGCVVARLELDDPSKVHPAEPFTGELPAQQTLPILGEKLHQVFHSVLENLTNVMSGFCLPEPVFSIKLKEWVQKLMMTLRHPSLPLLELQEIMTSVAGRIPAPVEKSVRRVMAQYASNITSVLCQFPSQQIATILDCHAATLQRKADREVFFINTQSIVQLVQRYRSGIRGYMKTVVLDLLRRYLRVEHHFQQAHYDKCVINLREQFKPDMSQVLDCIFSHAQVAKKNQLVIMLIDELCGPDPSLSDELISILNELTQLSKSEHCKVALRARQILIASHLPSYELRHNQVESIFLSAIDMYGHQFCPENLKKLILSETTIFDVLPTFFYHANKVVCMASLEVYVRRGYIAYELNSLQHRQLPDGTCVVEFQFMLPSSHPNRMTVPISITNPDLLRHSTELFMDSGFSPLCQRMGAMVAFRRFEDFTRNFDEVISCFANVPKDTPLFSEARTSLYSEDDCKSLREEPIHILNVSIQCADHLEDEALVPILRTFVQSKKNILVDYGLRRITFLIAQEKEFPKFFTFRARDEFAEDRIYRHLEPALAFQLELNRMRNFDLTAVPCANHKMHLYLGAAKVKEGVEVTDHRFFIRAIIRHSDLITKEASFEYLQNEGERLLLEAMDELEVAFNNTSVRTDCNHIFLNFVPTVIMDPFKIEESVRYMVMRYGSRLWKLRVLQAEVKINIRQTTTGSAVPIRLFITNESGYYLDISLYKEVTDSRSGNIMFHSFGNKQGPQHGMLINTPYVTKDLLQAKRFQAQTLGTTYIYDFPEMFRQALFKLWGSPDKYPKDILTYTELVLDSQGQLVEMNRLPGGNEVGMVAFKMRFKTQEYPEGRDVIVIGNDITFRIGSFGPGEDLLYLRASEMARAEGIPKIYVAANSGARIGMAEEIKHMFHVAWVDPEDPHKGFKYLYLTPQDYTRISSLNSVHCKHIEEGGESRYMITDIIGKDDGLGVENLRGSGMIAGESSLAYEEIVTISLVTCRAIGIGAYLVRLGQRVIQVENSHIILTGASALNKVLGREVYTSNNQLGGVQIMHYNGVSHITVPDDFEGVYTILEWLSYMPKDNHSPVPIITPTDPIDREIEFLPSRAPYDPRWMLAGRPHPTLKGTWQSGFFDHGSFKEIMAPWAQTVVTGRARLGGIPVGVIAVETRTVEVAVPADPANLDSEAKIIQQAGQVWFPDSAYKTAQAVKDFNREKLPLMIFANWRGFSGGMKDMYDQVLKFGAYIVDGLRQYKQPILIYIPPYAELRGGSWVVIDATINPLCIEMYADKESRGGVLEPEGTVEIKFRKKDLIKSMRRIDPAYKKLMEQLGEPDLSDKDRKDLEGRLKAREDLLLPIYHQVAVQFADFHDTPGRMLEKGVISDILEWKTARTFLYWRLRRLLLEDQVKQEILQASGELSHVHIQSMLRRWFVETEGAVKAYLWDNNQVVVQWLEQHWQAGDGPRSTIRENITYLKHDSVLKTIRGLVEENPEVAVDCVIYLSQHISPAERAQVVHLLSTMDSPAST
# assay.remarks: Inhibition of human ACC2 assessed as malonyl CoA formation by NADH-linked kinetic method
result.type: pIC50
One number for each entry, as −log10 of the molar value.

Solved cases (2 shown):
1. CCCOc1ccc(C2CCN(c3ccc(C(C)NC(C)=O)cc3F)CC2)c(C)c1 (racemic) : 7.22
2. CCOc1ccc(N2CC(Oc3ccc([C@H](C)NC(=O)c4cn[nH]c4)cc3)C2)c(C)c1 : 7.30

Switching to the query record.
The observed pIC50 for Cc1cc(OCC2CC2)ccc1C1CCN(c2ccc(C(C)C(=O)NC3CC3)cc2)CC1 (racemic) when tested with Acetyl-CoA carboxylase 2 (Homo sapiens, UniProt O00763) stands at 7.10

---

Answer each item with its documented CLint scaled.
# assay.remarks: Intrinsic clearance in human microsomes
# Assay type: ADME

1) Cc1cc2c(cc1C)C(=O)CC1(CCN(C(=O)c3cc(C)c4[nH]ncc4c3)CC1)O2 : 86 mL/min/kg

Switching to the query record.
# compound CC(C)(C)n1cc2c(n1)C(=O)CC1(CCN(C(=O)c3ccc4[nH]ncc4c3)CC1)O2 ; its CLint scaled = ≤ 8 mL/min/kg

---

Answer each item with its documented logD.
# assay.remarks: Lipophilicity, log D of the compound
# Format: physicochemical
# reported.conditions: octanol/water
One number for each entry.

Value sought for every listed molecule: logD.
1. CC(C)(C)n1cc2c(n1)C(=O)CC1(CCN(C(=O)c3ccc4[nH]ncc4c3)CC1)O2
2. CC(C)(C)OC(=O)CC[C@H]1CC[C@H](CNC(=O)c2cc(-c3ccccc3)nc3ccccc23)CC1

output:
1: 1.8; 2: 5.9
